- target_entity: T1, rat GLP-1 receptor (rat, UniProt P32301 22-463)
- T1 sequence (looked up): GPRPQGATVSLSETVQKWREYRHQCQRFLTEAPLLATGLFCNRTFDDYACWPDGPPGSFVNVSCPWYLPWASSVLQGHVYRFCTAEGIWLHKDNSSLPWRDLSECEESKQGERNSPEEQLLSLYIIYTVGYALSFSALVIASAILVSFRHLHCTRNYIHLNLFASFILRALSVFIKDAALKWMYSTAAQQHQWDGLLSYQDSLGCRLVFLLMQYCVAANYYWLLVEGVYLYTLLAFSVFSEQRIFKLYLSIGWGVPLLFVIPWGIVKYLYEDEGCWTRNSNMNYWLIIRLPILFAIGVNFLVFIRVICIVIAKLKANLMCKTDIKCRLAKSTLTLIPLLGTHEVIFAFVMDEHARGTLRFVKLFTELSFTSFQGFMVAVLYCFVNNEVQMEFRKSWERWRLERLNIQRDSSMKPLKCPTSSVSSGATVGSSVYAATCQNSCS
- assay_protocol: cell-based or functional assay
Param label: returns YES when cAMP EC50 < 0.05 nM, returns NO otherwise, including exact equality.

Determine if IP127 (Fc fusion) YSEGTFTSDVSSYLEEEAVREFIEWLLAGGAAAGGSGSTASSGSGSATGGGGAATHTCPPCPAPEF shows cAMP EC50 strictly lower than 0.05 nM. YES
